Test system: LOX IMVI melanoma
Test: NCI tumour cell line growth inhibition, 48 h
Property label: TGI (µM)
Provide the reading as a plain figure in µM.

# example entries with known answers
OCC1OC(N2C=C(c3nc4ccccc4s3)C3C=CC=CC32)C(O)C(O)C1O (configuration not stated): 26
CCCCCN(CCCCC)CCC[C@@H](C)[C@H]1CC[C@H]2[C@@H]3[C@H](OCCCN)C[C@@H]4C[C@H](OCCCN)CC[C@]4(C)[C@H]3C[C@H](OCCCN)[C@]12C: 10.2
N#CC1(CCCI)CCCC1: 22.9
O=C(Nc1ccc(I)cc1F)c1cc(Br)ccc1O: 2.75
O=S(=O)(CC(Cl)c1ccccc1)c1nc2ccccc2s1 (configuration not stated): 4.04
CCOC(=O)c1c(NN2CCN(CC(F)(F)F)CC2)oc(/C=C2\C=Nc3ncccc32)c1O: 11.8
Clc1ccc(-c2cnc3c(-c4ccnc(N5CCNCC5)c4)cnn3c2)cc1: 3.48
c1ccc(/C(=N\Nc2nc3ccccc3[nH]2)c2ccccn2)cc1: 7.44

Challenge: // query TGI value for entry CCCCCCOC(=O)CC1=C(C)/C(=C/c2[nH]c(-c3ccc[nH]3)cc2OC)N=C1C
Response given: 0.0565

* * *

Tested on: MDA-N
Assay: NCI tumour cell line growth inhibition, 48 h
Property label: TGI

Example cases with answers are listed next.
O=S(=O)(CC(Cl)c1ccccc1)c1nc2ccccc2s1 (stereo unspecified): 18.1 µM
NCCCN(CCCCN(CCCN)Cc1ccccc1)Cc1ccccc1: 33.1 µM
CC(C)CNC1=NCC(C)S1 (stereo unspecified): > 100 µM

Here is another compound to look at.
Challenge: What measured TGI is associated with CC[C@@]1(O)CC(OC2CC(N3CCOCC3)C(O)C(C)O2)c2c(O)c3c(c(O)c2[C@H]1O)C(=O)c1cccc(O)c1C3=O (stereo partly specified) on MDA-N?
Response given: 1.04 µM

* * *

Test system: SR leukemia
Assay: NCI tumour cell line growth inhibition, 48 h
Measured TGI accompanies every entry in the list below.

Check out these entries, answers already filled in.
CCCC(=O)OCC1OC(n2cc(F)c(=O)[nH]c2=O)C(F)C1O (stereo unspecified): > 100 µM
C=CCCn1nc(-c2ccccc2)oc1=O: > 100 µM
O=C1CN=C(c2ccc[nH]2)c2cc(Cl)ccc2N1: > 100 µM
O=C1OC2(c3ccc(O)cc3Oc3cc(O)ccc32)c2cccc3cccc1c23: > 100 µM
O=C(CCN1CCCCC1)Nc1ccc2c(c1)C(=O)c1ccc(NC(=O)CCN3CCCCC3)cc1C2=O: 6.49 µM

Challenge: For the compound O=c1[nH]c2nc3ccccc3c(=O)n2/c1=C/c1ccccc1 , what TGI is on record?
Response given: > 100 µM

Challenge: Data request, read-out TGI, for O=C1NC(=O)C(CCC(=O)c2cccc3ccccc23)C(=O)N1
Response given: > 100 µM

Challenge: Would you kindly share the measured TGI for COc1ccc(OC)c(N2CC(O)=C(c3nc4ccccc4s3)C2=N)c1 ?
Response given: > 100 µM

Challenge: Which TGI is reported for this compound? COc1cc(CSc2nc3ccc(Cl)cc3c(=O)n2Cc2ccccc2)cc(OC)c1OC
Response given: 27.6 µM

Challenge: Reported TGI, compound Cc1cc(Cl)ccc1NC(=O)/C(=N\NC(C)(C)C)C(C#N)c1nc(-c2ccc([N+](=O)[O-])cc2)cs1 (stereo unspecified) : ____
Response given: > 100 µM

Challenge: Tell me the measured TGI of COc1cc2c(/C=C3\C(=O)N(C)c4ccccc43)c[nH]c2cc1C , please.
Response given: 14.2 µM

* * *

System: SW-620 colon
Test: NCI tumour cell line growth inhibition, 48 h
Property label: TGI (µM)
Output spec: scalar in µM, unitless text.

Solved cases below.
O=C1N[C@H]2C(=O)c3c(Br)sc(Br)c3[C@H]2O1: 4.76
COc1ccccc1C#C/C=C\C#Cc1ccccc1C#N: 65.7
O=C1OC2(c3ccc(O)cc3Oc3cc(O)ccc32)c2cccc3cccc1c23: 42.7
O=C(Nc1ccc(I)cc1F)c1cc(Br)ccc1O: 9.47
O=C(C[C@@H]1CCCN2CCCC[C@H]12)N1c2ccccc2Sc2ccc(Cl)cc21: 26.8
CC(=O)O[C@@H]1c2c(c3c(=O)c4cccc(O)c4c(=O)c=3c2=[N+]=[N-])[C@H](OC(C)=O)[C@@H](OC(C)=O)[C@]1(C)O: 1.22

Now for the compound whose TGI we want.
Challenge: Given the compound CCCN(CCC)c1ccc(/C=N/NC(=O)c2cccnc2)c(C)c1 , what is its reported TGI?
Response given: 35.7

* * *

Test system: NCI-H23 lung
Test: NCI tumour cell line growth inhibition, 48 h
Property label: log10 TGI (log10 of the value in µM)
For clarity, the numbers are log10 values of TGI expressed in µM.

Past entries and their recorded results:
Cc1cccc2c(=O)c3c(sc12)c(NCCCNCCO)nc1ccccc13: 0.50
Nc1ccc(Oc2ccc(C34CC5CC(C3)CC(c3ccc(Oc6ccc(N)cc6C(F)(F)F)cc3)(C5)C4)cc2)c(C(F)(F)F)c1: 1.66
Cc1ncc(C(=O)Nc2ccc(CN3CCN(C)CC3)c(C(F)(F)F)c2)cc1C#Cc1cnc(N)c2ccc(C#N)cc12: 0.52
O=C(C[C@@H]1CCCN2CCCC[C@H]12)N1c2ccccc2Sc2ccc(Cl)cc21: 1.46
CCN1/C(=C/C(C)=C/c2sc3ccc4ccccc4c3[n+]2CC)Sc2ccc3ccccc3c21: 0.08

Now for a further compound.
Challenge: Name the recorded log10 TGI for O=C1Nc2cccc(Cl)c2/C1=C\c1cccnc1 .
Response given: 1.20

* * *

System: HS 578T breast
Test: NCI tumour cell line growth inhibition, 48 h
The entries below are paired with their reported TGI.

Use these answered entries as a reference point.
O=C1c2cc3c(cc2CC12Cc1ccccc1C2)CCC3: > 100 µM
O=Cc1ccc(-c2ccc(-c3nc4ccccc4s3)cc2)o1: > 100 µM
O=C(CSCC(=O)N/N=C\c1ccc(F)cc1F)N/N=C\c1ccc(F)cc1F: > 100 µM
N#Cc1c(-c2ccc([N+](=O)[O-])cc2)c2c([nH]c1=O)-c1ccccc1CCC2: > 100 µM
CC(=O)OC(C(=O)O)C(OC(C)=O)C(OC(C)=O)C(OC(C)=O)C(=O)O (stereo unspecified): > 100 µM

Challenge: Which TGI reading was recorded for the compound Cc1c(-c2ccccc2)c(C#N)c2nnn(-c3ccc(Cl)cc3)c(=O)n12 ?
Response given: > 100 µM

Challenge: GET /values?readout=TGI&item= CC(=O)C1C(=O)C(=O)N(c2ccc([N+](=O)[O-])cc2[N+](=O)[O-])C1=O (stereo unspecified)
Response given: > 100 µM

Challenge: What measured TGI goes with CCNCC(=O)Nc1ccc2c(c1)C(=O)c1ccc(NC(=O)CNCC)cc1C2=O ?
Response given: 22.1 µM

Challenge: Given the compound COc1ccc2c(n1)Sc1nc3ccccc3nc1N2 , what is its reported TGI?
Response given: > 100 µM

Challenge: TGI lookup needed for Cn1c(-c2ccccc2)cc(-c2ccc3c(c2)OCO3)c1-c1ccsc1 , thanks.
Response given: > 100 µM

Challenge: Given COc1ccc(-c2cnc(-c3ccc(OC)cc3)n2-c2cc(OC)c(OC)c(OC)c2)cc1 , state its recorded TGI.
Response given: 64.2 µM

Challenge: Please look up its TGI: Cc1ccc(/C(=N/NS(=O)(=O)c2cc(C)c(Cl)cc2Cl)Sc2cc(Cl)c(C)cc2S(N)(=O)=O)cc1
Response given: > 100 µM

Challenge: Give the measured TGI of C/C(O)=C(/C=N/C(=S)Nc1ccccc1)C(=O)Nc1ccccc1C .
Response given: > 100 µM

Challenge: Which TGI is reported for this compound? O=C1OC(c2ccc(O)cc2)(c2ccc(O)cc2)c2ccc(Cl)c3cccc1c23 (tested in a mixture with another compound)
Response given: 40.6 µM

* * *

Reported TGI values for a set of compounds
Test system: UACC-257 melanoma
Assay: NCI tumour cell line growth inhibition, 48 h

Sample answers from the record:
COC(=O)c1c2c(c(C)[n+]([O-])c1C)C(=O)C(NCc1ccccc1)=CC2=O: 4.02 µM
O=C1CN=C(c2ccc[nH]2)c2cc(Cl)ccc2N1: > 100 µM
COc1cc(-n2cc(-c3ccc(Cl)cc3)n(-c3ccccc3)c2=O)cc(OC)c1OC: 71.9 µM
Brc1ccc(-c2[nH]c3ccccc3c2/C=N\Nc2ccc(-c3nc4ccccc4[nH]3)cc2)cc1: > 100 µM

Challenge: Recorded TGI of O=C1OC(c2ccc(O)cc2)(c2ccc(O)cc2)c2ccc(Cl)c3cccc1c23 (tested in a mixture with another compound) , please.
Response given: 70.1 µM

Challenge: Which TGI is listed for O=C(Nc1ccc(Cl)c(C(F)(F)F)c1)Nc1ccc(-c2cccnc2)cc1N1CCC(CO)CC1 ?
Response given: 9.82 µM
